# maps each entry to its Binding affinity (RU)
Target: acetylcholine receptor
Assay: SPR, AchR on CM5 chip, peptide 10 µM

>>> value_observed("KKTTGR [6mer-1-1196]")
"25 RU"
>>> value_observed("KKPNIK [6mer-1-1133]")
"24 RU"
>>> value_observed("RKESVR [6mer-1-1157]")
"36 RU"

Request: Requested read-out: Binding affinity (RU). Entry: RKYKEK [6mer-1-1152]
Response: 23 RU
